Overview of recorded protein stability index for various variants
B1: EPB41L3 (parent)
chain: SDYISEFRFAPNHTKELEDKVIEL

- Variants of: B1
- assay comment: protein stability index of a GFP-peptide fusion (GPS, HEK-293T) (PSI 1-6); higher = more stable;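 further: lentivirally expressed fusions sorted by FACS into six bins by GFP to DsRed ratio, PSI derived from sequencing read proportions per bin multiplied by bin number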
- condition info: c terminus: a fixed tail appended

[[record]]
mutation_id = "L24D"
assay_readout = "protein stability index"
result = 3.11


Identify measured protein stability index associated with "E16M"
3.24

Identify measured protein stability index associated with "D19P"
2.19

Identify measured protein stability index associated with "N12Y"
2.1

Identify measured protein stability index associated with "L24V"
2.18

Identify measured protein stability index associated with "N12V"
2.23
